Reported IC50 on Serine/threonine-protein kinase Chk1 (Homo sapiens, UniProt O14757) for assorted compounds, compiled from publications.
# System Name: Serine/threonine-protein kinase Chk1 (Homo sapiens, UniProt O14757)
# Sequence (O14757 whole entry): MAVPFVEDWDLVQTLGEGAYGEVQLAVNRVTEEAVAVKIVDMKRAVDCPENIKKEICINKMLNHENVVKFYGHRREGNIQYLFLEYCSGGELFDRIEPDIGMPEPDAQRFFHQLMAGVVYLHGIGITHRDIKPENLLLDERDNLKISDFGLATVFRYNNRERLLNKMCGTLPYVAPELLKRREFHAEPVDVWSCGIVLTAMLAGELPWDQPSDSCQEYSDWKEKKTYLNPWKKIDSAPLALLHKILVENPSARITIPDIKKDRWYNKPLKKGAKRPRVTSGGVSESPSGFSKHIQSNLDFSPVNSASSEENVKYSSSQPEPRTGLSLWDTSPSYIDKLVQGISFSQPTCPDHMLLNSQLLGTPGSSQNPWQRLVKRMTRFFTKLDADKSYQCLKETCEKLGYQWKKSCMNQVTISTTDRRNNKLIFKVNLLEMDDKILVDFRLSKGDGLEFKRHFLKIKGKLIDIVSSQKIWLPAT
Quantity Kind: IC50 (nM)

# count of solved cases: 10
                                   compound  meas_value
0  Cc1cn2c(-c3cnn(CC(=O)NCc4cccs4)c3)cnc2c(Nc2cc(CN3CCCC(C)C3)ns2)n1 (stereo not given)         300
1  CC(C)(O)CC(=O)N1CCc2cc(Nc3ncc(C(F)(F)F)c(N[C@H]4CCCNC4)n3)ccc2C1         952
2  N#Cc1ccc(Nc2ncc(C(F)(F)F)c(N[C@@H]3CCCNC3)n2)cn1         831
3  NC(=O)c1cnc(N[C@@H]2CCNC2)n2cc(-c3ccc(Cl)cc3)nc12       42100
4  N#Cc1ccc(Nc2ncc(C(F)(F)F)c(NC[C@@H]3CCNC3)n2)cn1        40.3
5    CNCCCNc1nc(Nc2ccc(C#N)nc2)ncc1C(F)(F)F        12.9
6  Cc1cc(-c2cnc(Nc3cc(Cl)cc(Cl)c3)nc2NC2CCC(N(C)C)CC2)on1 (stereo not given)        1370
7  NCC1CCN(Cc2ccc3[nH]c(-c4cc5cc(C(N)=O)ccc5[nH]c4=O)cc3c2)CC1         0.7
8  Oc1nc2ccc(Cl)cc2c(NC2CCCNC2)c1-c1nc2ccccc2[nH]1 (stereo not given)        1.04
9  CNc1nc(Nc2cnc(C#N)c(NCCN)c2)ncc1C(F)(F)F        19.1

P: CS(=O)(=O)N1CCc2cc(Nc3ncc(C(F)(F)F)c(NCCCN)n3)ccc2C1
Q: NC(=O)c1csc2c3c([nH]c12)C(=O)NCC/C3=C1/NC(N)=NC1=O
stdin: Could you point out whether the larger IC50 belongs to P or to Q ? Let me know the label of the one you choose.
stdout: Q
(Q: 150 nM, P: 25.6 nM)
